B1: TPR t1 (parent)
chain: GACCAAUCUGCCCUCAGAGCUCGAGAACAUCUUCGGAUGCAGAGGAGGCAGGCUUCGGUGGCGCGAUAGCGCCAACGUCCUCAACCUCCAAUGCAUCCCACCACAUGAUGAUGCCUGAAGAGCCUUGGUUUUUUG

# Variants of: B1
# TEST_PROTOCOL: polymerase ribozyme fitness, log enrichment relative to wild type (log ratio); higher = more active; in vitro selection for triplet polymerase activity
Catalogue of polymerase ribozyme fitness (log ratio) values

[[record]]
variant_name = "C56U G69C G71A C79A G113U"
meas_value = -6.83


Name the recorded polymerase ribozyme fitness (log ratio) for C3U U55C C89U C115U .
-3.75

What value of polymerase ribozyme fitness (log ratio) has been reported for the following variant? C79G A83G G117C
-5.42

Which polymerase ribozyme fitness (log ratio) value is on record for C8A G47U U78G U81G ?
-4.17

Quick one: polymerase ribozyme fitness (log ratio) of U78A C114G ?
-2.43

GET /values?readout=polymerase ribozyme fitness (log ratio)&item= A6U C56G U129A
-2.48
